These entries and their values trace back to patent US11518754B2.

pKi overview
Biological target: SV2A (Rattus norvegicus (Rat), UniProt Q02563)
Sequence (Q02563 whole entry): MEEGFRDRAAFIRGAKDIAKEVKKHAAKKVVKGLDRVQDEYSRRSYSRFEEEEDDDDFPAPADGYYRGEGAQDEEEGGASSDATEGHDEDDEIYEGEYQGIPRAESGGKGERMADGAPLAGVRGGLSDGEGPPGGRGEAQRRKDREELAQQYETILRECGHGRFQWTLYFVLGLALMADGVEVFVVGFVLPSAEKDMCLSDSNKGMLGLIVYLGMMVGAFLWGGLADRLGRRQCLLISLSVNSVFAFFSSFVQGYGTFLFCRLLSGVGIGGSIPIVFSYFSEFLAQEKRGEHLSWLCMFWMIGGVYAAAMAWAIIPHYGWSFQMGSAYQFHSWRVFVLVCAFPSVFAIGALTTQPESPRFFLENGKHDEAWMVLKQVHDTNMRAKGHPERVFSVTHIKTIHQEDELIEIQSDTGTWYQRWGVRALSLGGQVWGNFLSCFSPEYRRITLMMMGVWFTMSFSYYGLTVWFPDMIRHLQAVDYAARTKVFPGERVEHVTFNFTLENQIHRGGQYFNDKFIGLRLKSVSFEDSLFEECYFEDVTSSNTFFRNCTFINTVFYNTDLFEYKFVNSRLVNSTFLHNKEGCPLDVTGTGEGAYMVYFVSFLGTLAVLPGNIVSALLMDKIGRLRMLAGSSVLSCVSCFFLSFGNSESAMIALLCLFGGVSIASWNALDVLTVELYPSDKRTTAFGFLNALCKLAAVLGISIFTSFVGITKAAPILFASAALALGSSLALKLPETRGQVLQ
pKi field: float, defined as -log10 of concentration (mol/L).

Task: Look up and report measured pKi (SV2A (Rattus norvegicus (Rat), UniProt Q02563)) for the following compound: O=C1CC(c2cccc(F)c2)CN1Cc1ccncc1 (single isomer, unassigned) [(S)-12]
Output: 8.33

Task: Look up and report measured pKi (SV2A (Rattus norvegicus (Rat), UniProt Q02563)) for the following compound: Cc1cnccc1CN1CC(c2ccc(F)c(F)c2)CC1=O (single isomer, unassigned) [(R)-4]
Output: 8.68

* * *

Test: PET imaging studies in rhesus monkeys
Conditions: rhesus monkey, in vivo, Distribution volume (VT), Occipital cortex; 1T model
Method: Experiments were performed in rhesus monkeys (Macaca mulatta). […] Arterial blood samples were collected during the PET scans to calculate the plasma input function and to determine the unmetabolized parent fraction using the automatic column-switching HPLC system. Plasma free fraction (fp) was measured in triplicate using the ultrafiltration method. […] Typical injected radioactivity amount was 0.5-5 mCi per injection, with typical injected mass amount of 1-10 μg. […]
Kp overview
In your answer, state the number alone without any accompanying words.

>>> quantitativeresult("Cc1cnccc1CN1CC(c2cccc(F)c2)CC1=O (stereo not drawn) [^18F-11]")
15.7
>>> quantitativeresult("Cc1cnccc1CN1CC(c2cc(F)cc(F)c2)CC1=O (stereo not drawn) [^18F-5]")
39.3

# next compound below
Task: Quote Kp reported for O=C1CC(c2cc(F)c(F)c(F)c2)CN1Cc1ccncc1F (stereo not drawn) [^18F-10] please.
Output: 15.5
